Numbers sourced from patent US20210198277A1.

Some molecules, each annotated with its measured IC50.
- target entity: EHMT2 (Homo sapiens, UniProt Q96KQ7)
- Construct: host or cells: MDA-MB-231
- Sequence (Q96KQ7 1-1210): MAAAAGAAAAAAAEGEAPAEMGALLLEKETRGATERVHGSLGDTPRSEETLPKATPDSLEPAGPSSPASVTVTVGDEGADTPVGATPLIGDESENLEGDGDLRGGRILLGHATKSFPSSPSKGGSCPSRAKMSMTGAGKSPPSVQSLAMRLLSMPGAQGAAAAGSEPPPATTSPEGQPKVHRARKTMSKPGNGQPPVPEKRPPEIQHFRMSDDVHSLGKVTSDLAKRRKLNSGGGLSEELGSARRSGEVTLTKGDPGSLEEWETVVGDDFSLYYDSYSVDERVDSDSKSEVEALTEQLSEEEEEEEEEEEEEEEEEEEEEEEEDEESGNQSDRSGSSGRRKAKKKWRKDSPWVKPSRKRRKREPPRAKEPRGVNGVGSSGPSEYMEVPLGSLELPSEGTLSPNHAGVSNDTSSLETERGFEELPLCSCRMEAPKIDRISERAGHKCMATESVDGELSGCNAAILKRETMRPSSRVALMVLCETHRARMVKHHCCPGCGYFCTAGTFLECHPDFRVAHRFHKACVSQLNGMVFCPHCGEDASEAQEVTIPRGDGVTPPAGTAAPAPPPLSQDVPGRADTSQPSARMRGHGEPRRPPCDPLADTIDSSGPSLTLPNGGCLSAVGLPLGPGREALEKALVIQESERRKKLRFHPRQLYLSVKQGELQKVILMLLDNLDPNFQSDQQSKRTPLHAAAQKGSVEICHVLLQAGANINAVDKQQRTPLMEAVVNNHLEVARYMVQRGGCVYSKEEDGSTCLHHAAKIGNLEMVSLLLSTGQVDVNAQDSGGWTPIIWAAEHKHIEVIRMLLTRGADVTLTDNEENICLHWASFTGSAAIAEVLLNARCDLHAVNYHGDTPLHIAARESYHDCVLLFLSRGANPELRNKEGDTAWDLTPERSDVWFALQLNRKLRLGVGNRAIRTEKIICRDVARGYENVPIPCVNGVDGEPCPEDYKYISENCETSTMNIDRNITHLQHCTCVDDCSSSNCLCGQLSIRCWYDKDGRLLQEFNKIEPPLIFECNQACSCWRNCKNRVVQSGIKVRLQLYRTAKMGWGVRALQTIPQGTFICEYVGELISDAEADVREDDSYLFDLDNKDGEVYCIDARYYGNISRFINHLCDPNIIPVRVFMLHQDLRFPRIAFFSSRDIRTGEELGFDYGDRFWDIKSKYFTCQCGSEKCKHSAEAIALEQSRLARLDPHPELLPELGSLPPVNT
- measurement description: MDA-MB-231 H3K9me2 in-cell Western assay (EHMT2 ICW)
- Type: cell-based
- recorded conditions: Table III; MDA-MB-231 H3K9me2 in-cell Western; read-out: EHMT2 ICW (IC50 μM)

>  <molecule>
CNc1ccnc(Nc2ccc(OC)c(OCC3CCN(C(C)C)C3)c2)n1 (stereo not shown) [Compound 409]

>  <target entity>
EHMT2 (Homo sapiens, UniProt Q96KQ7)

>  <IC50>
0.1 to 1 µM

$$$$

Record COc1ccc(Nc2ccnc(NCC3CCN(C(C)=O)CC3)n2)cc1OCCCN1CCCC1 [Compound 340] , field IC50: > 10 µM

Record COc1ccc(Nc2ccc3cnn(C)c3c2)cc1OCCCN1CCCC1 [Compound 341] , field IC50: > 10 µM
